Molecular target: unrelated Fc-fused recombinant protein
Assay: ELISA, negative control Fc protein
What ELISA Fc Control (RLU) was measured for each of the following?
Numbers only, in RLU.

[
  {
    "binder": "ISOP193AR9P1B10 (designed binder, not shown: small tags and cut ends) LPAPKNLVVSRVTEDSARLSWAFQWHIFDSFLIQYQESEKVGEAIVLTVPGSERSYDLTGLKPGTEYTVSIYGVGRHYTVYDSNPLSAIFTT",
    "propertyMeasured": "ELISA Fc Control (RLU)",
    "readoutUnit": "RLU",
    "recordedResult": 1520
  }
]

// for each binder below, give its ELISA Fc Control (RLU)
1. ISOP193FR9P1E1 (designed binder, not shown: small tags and cut ends) LPAPKNLVVSRVTEDSARLSWTAPDAAFDSFIIRYLEDISYGEAIVLTVPGSERSYDLTGLKPGTEYHVGIEGVKGGNVSWPLSAIFTT
2. ISOP193AR9P1B12 (designed binder, not shown: small tags and cut ends) LPAPKNLVVSRVTEDSARLSWTNEQITKYGFDSFLIQYQESEKVGEAIVLTVPGSERSYDLTGLKPGTEYTVSIYGVGAPYTVYDSNPLSAIFTT
3. ISOP193FR9P1G7 (designed binder, not shown: small tags and cut ends) LPAPKNLVVSRVTEDSARLSWTAPDAAFDSFHIHYLEGEWGGEAIVLTVPGSERSYDLTGLKPGTEYLVTIYGVKGCDWSDPLSAIFTT

1: 2000; 2: 2240; 3: 42300
